Could you label it condition met if measured melting point is 100 °C or higher, and condition not met otherwise?

CCCCCCCCCCCCC [Tridecane]: condition not met
CC(=O)O [acetic_acid]: condition not met
O=C=Nc1cccc2ccccc12 [1-naphthyl isocyanate]: condition not met
O=C1CN(C(=O)OCc2ccccc2)CCN1 [4-benzyloxycarbonyl-2-piperazinone]: condition met
CC(Cc1oc2c(c3c(c4ccccc42)OC2CC(=O)OC32)c(=O)c1[Si](C)(C)C)O[Si](C)(C)C(C)(C)C (stereo not given): condition met

Could you verify whether the entry BrC(Br)Br [Bromoform] shows melting point of no less than 100 °C?
condition not met

Could you verify whether the entry C[C@]12CCC(=O)C=C1CC[C@@H]1[C@@H]2CC[C@]2(C)C(=O)CC[C@@]12O [14-hydroxyandrost-4-ene-3,17-dione] shows melting point of no less than 100 °C?
condition met

Could you verify whether the entry Oc1ccc2ccccc2c1-c1c(O)ccc2ccccc12 [1,1'-bi(2-naphthol)] shows melting point of no less than 100 °C?
condition met

Could you verify whether the entry CC(=O)c1ccccc1N [o-aminoacetophenone] shows melting point of no less than 100 °C?
condition not met
